target: Full length DGKα (D21-10BG, SignalChem) (Homo sapiens)
Sequence (P23743 whole entry): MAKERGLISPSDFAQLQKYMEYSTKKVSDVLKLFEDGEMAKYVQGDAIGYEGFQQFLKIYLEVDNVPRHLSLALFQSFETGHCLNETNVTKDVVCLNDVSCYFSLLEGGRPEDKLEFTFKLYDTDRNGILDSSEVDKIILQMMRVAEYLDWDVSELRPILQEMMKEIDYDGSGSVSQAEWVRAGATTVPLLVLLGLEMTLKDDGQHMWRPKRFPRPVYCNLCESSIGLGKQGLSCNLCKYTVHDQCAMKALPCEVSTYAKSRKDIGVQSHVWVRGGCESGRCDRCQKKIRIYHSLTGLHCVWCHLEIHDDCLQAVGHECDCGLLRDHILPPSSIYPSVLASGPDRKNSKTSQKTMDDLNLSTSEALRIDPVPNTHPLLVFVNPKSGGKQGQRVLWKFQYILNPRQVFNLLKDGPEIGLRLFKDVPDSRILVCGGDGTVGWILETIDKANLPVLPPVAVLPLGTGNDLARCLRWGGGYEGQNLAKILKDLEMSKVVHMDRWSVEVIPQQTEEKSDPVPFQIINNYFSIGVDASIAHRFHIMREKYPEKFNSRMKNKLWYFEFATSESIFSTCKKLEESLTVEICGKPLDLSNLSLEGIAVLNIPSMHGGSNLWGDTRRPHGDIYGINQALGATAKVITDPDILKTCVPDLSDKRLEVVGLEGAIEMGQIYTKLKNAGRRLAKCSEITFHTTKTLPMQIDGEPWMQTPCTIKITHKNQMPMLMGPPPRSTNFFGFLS
reported-endpoint: pIC50
Conceptually, pIC50 converts a concentration in mol/L into minus its log10.

Given item CCn1c(CC#N)nc2c(N3C[C@@H](C)N(C(C)c4ccc5c(c4Cl)OC(C)(C)O5)C[C@@H]3C)nc(=O)n(C)c21 (single isomer, unassigned) [Compound A172b] , the value recorded as its pIC50 is 3.94

Given item CC[C@@H]1CN(c2nc(=O)n(C)c3c2nc(CC#N)n3C)[C@@H](C)CN1C(C)c1ccc2ncc(C)nc2c1 (single isomer, unassigned) [Compound A50a] , the value recorded as its pIC50 is 4.61

Given item CCn1c(CC#N)nc2c(N3C[C@@H](C)N(C(C)c4cccc5c4OC(F)(F)O5)C[C@@H]3C)nc(=O)n(C)c21 (stereo partly drawn) [Compound A187] , the value recorded as its pIC50 is 3.94

* * *

Test system Full length DGKα (D21-10BG, SignalChem) (Homo sapiens), pIC50 listed for each of the compounds.
Conceptually, pIC50 converts a concentration in mol/L into minus its log10.

Given item CCn1c(CC#N)nc2c(N3C[C@@H](C)N(C(C)c4c(F)cc5c(c4F)OC(C)(C)O5)C[C@@H]3C)nc(=O)n(C)c21 (single isomer, unassigned) [Compound A176a] , the value recorded as its pIC50 is 4.88

Given item CC(c1cc2c(cc1F)OCC(C)(C)O2)N1C[C@H](C)N(c2nc(=O)n(C)c3c2nc(CC#N)n3C)C[C@H]1C (single isomer, unassigned) [Compound A69a] , the value recorded as its pIC50 is 5.92

Given item CC[C@@H]1CN(c2nc(=O)n(C)c3c2nc(CC#N)n3C)[C@@H](C)CN1C(C)c1ccc2c(c1)OC(C)(C)CO2 (single isomer, unassigned) [Compound A63b] , the value recorded as its pIC50 is 5.13

Given item CCn1c(CC#N)nc2c(N3C[C@@H](C)N(C(C)c4ccc5c(c4F)OC(C)(C)O5)C[C@@H]3C)c(F)c(=O)n(C)c21 (single isomer, unassigned) [Compound A190b] , the value recorded as its pIC50 is 4.42

Given item CC[C@@H]1CN(c2nc(=O)n(CC)c3c2nc(CC#N)n3C)[C@@H](C)CN1C(C)c1ccc2c(c1)OC(C)(C)CO2 (single isomer, unassigned) [Compound A66a] , the value recorded as its pIC50 is 4.80

Given item CC#CCc1nc2c(N3C[C@@H](CC)N(C(C)c4ccc(C(F)(F)F)cc4)C[C@@H]3CC)nc(=O)n(C)c2n1C (some centres unmarked) , the value recorded as its pIC50 is 5.57

Given item CCn1c(CC#N)nc2c(N3C[C@@H](C)N(C(C)c4cccc(C(C)(C)C#N)c4)C[C@@H]3C)nc(=O)n(C)c21 (some centres unmarked) , the value recorded as its pIC50 is 3.95

* * *

target: Full length DGKζ (in-house protein M1-V929) (Homo sapiens); construct: His (N); TEV site (N); made in house; host or cells: Sf9 insect cells (Bac-to-Bac baculovirus); assay: Biochemical DGK IC50 assay (ADP-Glo, lipid micelle substrate), DGKζ; conditions: 1 hour preincubation, 1 hour reaction, room temperature
Sequence (Q13574 1-929 isoform Q13574-4): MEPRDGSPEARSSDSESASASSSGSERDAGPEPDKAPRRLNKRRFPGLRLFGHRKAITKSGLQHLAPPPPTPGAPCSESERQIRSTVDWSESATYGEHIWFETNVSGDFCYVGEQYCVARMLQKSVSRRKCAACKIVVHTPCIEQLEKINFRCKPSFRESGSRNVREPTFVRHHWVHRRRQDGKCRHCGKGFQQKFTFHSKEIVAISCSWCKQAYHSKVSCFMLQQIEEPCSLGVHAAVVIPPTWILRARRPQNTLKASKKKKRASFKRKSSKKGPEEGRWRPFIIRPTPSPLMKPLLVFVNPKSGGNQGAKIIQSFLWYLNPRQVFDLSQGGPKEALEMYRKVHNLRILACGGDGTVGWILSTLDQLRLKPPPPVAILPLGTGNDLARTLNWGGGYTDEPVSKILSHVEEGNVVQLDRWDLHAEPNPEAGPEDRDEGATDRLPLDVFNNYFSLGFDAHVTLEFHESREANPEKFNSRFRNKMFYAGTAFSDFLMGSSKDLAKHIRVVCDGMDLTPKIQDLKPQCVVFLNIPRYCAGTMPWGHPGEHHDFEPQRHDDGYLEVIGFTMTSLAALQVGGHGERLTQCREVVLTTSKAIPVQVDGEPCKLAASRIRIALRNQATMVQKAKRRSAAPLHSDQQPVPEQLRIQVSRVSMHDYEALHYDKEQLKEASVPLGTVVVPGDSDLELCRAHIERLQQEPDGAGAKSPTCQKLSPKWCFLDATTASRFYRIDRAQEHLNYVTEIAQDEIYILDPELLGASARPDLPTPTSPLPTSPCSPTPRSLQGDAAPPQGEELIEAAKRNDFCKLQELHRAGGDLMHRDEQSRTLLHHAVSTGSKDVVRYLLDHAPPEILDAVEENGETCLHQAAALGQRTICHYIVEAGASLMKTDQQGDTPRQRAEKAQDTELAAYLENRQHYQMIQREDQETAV
Mark True only for IC50 values smaller than 80 nM; exact matches and larger values are False.

Task item: For CCn1c(CC#N)nc2c(N3C[C@@H](C)N(C(C)c4ccc5c(c4)OC(C)(C)CO5)C[C@@H]3C)c(F)c(=O)n(C)c21 (stereo partly drawn) [Compound A20] , is the recorded IC50 below the cut-off of 80 nM?
Reply: True

Task item: For CCn1c(CC#N)nc2c(N3C[C@@H](C)N(C(C)c4ccc5c(c4)OC(F)(F)O5)C[C@@H]3C)nc(=O)n(C)c21 (single isomer, unassigned) [Compound A99a] , is the recorded IC50 below the cut-off of 80 nM?
Reply: True

Task item: For Cc1ccc(C(C)N2C[C@H](C)N(c3cc(=O)n(C)c4c3nc(CC#N)n4C)C[C@H]2C)cc1 (single isomer, unassigned) [Compound A5a] , is the recorded IC50 below the cut-off of 80 nM?
Reply: False

Task item: For CCn1c(CC#N)nc2c(N3C[C@@H](C)N(C(C)c4ccc(F)c5c4OC(C)(C)O5)C[C@@H]3C)nc(=O)n(C)c21 (single isomer, unassigned) [Compound A185a] , is the recorded IC50 below the cut-off of 80 nM?
Reply: False

Task item: For CC(c1ccc2nccnc2c1)N1C[C@H](C)N(c2cc(=O)n(C)c3c2nc(CC#N)n3C)C[C@H]1C (stereo partly drawn) [Compound A1] , is the recorded IC50 below the cut-off of 80 nM?
Reply: True

Task item: For CCn1c(CC#N)nc2c(N3C[C@@H](C)N(C(C)c4cccc(C5(C)CC5)c4)C[C@@H]3C)nc(=O)n(C)c21 (stereo partly drawn) [Compound A126] , is the recorded IC50 below the cut-off of 80 nM?
Reply: True

Task item: For CC(c1ccc(F)cc1C(F)(F)F)N1C[C@H](C)N(c2cc(=O)n(C)c3[nH]c(CC#N)nc23)C[C@H]1C (stereo partly drawn) [Compound A9] , is the recorded IC50 below the cut-off of 80 nM?
Reply: False

Task item: For CCn1c(CC#N)nc2c(N3C[C@@H](C)N(C(C)c4cccc(OC(C)C)n4)C[C@@H]3C)nc(=O)n(C)c21 (single isomer, unassigned) [Compound A117b] , is the recorded IC50 below the cut-off of 80 nM?
Reply: True

Task item: For CC[C@@H]1CN(c2nc(=O)n(C)c3c2nc(CC#N)n3C)[C@@H](C)CN1C(C)c1ccc2ncc(C)nc2c1 (single isomer, unassigned) [Compound A50b] , is the recorded IC50 below the cut-off of 80 nM?
Reply: False
